# target_of_assay: T1, human MSLN-R2-his protein (human, UniProt Q13421 391-486)
# T1 construct: Region 2 of human MSLN, His-tagged; also called human MSLN-R2 protein; hMSLN-R2-his; not shown: His tag
# assay_explanation: ELISA, coated MSLN-R2;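 further: chimeric antibodies bound to blocked coated plates for 2 h at 37 °C, TMB colour development stopped with HCl, with a negative control antibody for comparison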
test_readout: OD450 at 10 nM (OD450)
# output: bare number, implied unit OD450

binder: S009-F1.56.1 (antibody, human IgG1, kappa, V domains shown, Human-murine chimeric antibody, human IgG1/kappa constant regions) VH: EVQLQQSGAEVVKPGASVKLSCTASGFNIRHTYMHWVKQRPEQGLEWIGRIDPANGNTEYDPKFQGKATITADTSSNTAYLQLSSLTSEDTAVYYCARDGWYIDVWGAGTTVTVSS VL: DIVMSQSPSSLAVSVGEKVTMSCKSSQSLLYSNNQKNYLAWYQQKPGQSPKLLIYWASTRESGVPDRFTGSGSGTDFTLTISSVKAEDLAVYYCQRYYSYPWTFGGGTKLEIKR
OD450 at 10 nM, OD450: 2.31

**Query** Can you look up the measured OD450 at 10 nM of S009-F1.25.10 (antibody, human IgG1, kappa, V domains shown, Human-murine chimeric antibody, human IgG1/kappa constant regions) VH: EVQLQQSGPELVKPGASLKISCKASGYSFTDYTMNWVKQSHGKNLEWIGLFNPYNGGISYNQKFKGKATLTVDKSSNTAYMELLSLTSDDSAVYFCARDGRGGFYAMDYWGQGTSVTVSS VL: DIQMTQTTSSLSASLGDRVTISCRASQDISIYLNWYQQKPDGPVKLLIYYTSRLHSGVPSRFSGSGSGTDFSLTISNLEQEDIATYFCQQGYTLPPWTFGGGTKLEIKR for me?
**Result** 0.05

**Query** Can you look up the measured OD450 at 10 nM of S009-F1.59.1 (antibody, human IgG1, kappa, V domains shown, Human-murine chimeric antibody, human IgG1/kappa constant regions) VH: EVKLEGSGGGLVQPGGSMMLSCVATGFTFSSYWMNWVRQSPDRGLEWVAEIRLKSNGFAAFYAESVKGRFTISRDDSKSSVYLQMNNLRTEDTGIYYCTYFVHWGQGILVTVSE VL: DIVLTQSPTSLAVSLGQRATISCRTSESVEYFGTILIQWYQQKPGQPPKLLIFGASNVESGVPARFSGSGSGTDFSLNIHPVEEEDIAMYFCQQNRKVPYTFGGGTTLELKR for me?
**Result** 0.05
